- measuredTarget: T1, human IGF2^1-67 (mature insulin-like growth factor 2) (human, UniProt P01344 25-91, biotinylated (site not stated) where immobilised on the chip (Tables 1-4))
- T1 construct: mature; also called mature IGF2; biotinylated IGF2
- T1 sequence (P01344 25-91): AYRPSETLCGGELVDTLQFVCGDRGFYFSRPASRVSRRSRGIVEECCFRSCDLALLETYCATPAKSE
- testSummary: SPR kinetic, biotin-IGF2 on chip, pH 7.4
measurementType: koff (s⁻¹)

>>> datavalue("domain 11^AB5 K1631R (receptor, See m5; HI loop mutant) MKSNEHDDCQVTNPSTGHLFDLSSLSGRAGFTAAYAKGWGVYMSICGENENCPPGVGACFGQTRISVGKANKRLRYVDQVLQLVYKDGSPCPSKSGLSYKSVISFVCRPEAGPTNRPMLISLDRQTCTLFFSWHTPLACEQATECSV")
0.0867

(1) domain 11^AB5 S1600N (receptor, See m5) MKSNEHDDCQVTNPSTGHLFDLSSLSGRAGFTAAYAKGWGVYMSICGENENCPPGVGACFGQTRISVGKANKRLRYVDQVLQLVYKDGSPCPNKSGLSYKSVISFVCRPEAGPTNRPMLISLDKQTCTLFFSWHTPLACEQATECSV
(2) domain 11^AB5 L1604A (receptor, See m5) MKSNEHDDCQVTNPSTGHLFDLSSLSGRAGFTAAYAKGWGVYMSICGENENCPPGVGACFGQTRISVGKANKRLRYVDQVLQLVYKDGSPCPSKSGASYKSVISFVCRPEAGPTNRPMLISLDKQTCTLFFSWHTPLACEQATECSV
(3) domain 11^AB5 S1602A (receptor, See m5) MKSNEHDDCQVTNPSTGHLFDLSSLSGRAGFTAAYAKGWGVYMSICGENENCPPGVGACFGQTRISVGKANKRLRYVDQVLQLVYKDGSPCPSKAGLSYKSVISFVCRPEAGPTNRPMLISLDKQTCTLFFSWHTPLACEQATECSV
Rank the 3 binders: largest koff first, smallest last. The labels, placed in the requested order, form the answer. 1, 2, 3
(1: 0.091 s⁻¹, 2: 0.0397 s⁻¹, 3: 0.025 s⁻¹)
